# Test system: carrageenan-induced paw edema
# assay text: Carrageenan-induced rat-paw-edema assay
# Type: in vivo, rats
# experimental context: after 1 hour of induced inflammation
readout kind: anti-inflammatory activity (in words)

[[record]]
compound = "COc1ccc2cc(C(C)C(=O)NC(=S)NC(CO)C(=O)O)ccc2c1 (stereo not drawn) [Compound 7]"
readout_kind = "anti-inflammatory activity (in words)"
reported_value = "moderate potency"

[[record]]
compound = "COC(=O)C(CO)NC(=S)NC(=O)C(C)c1ccc2cc(OC)ccc2c1 (stereo not drawn) [Compound 11]"
readout_kind = "anti-inflammatory activity (in words)"
reported_value = "moderate potency"

[[record]]
compound = "COc1ccc2cc(C(C)C(=O)NC(=S)NCCC(=O)O)ccc2c1 (stereo not drawn) [Compound 6]"
readout_kind = "anti-inflammatory activity (in words)"
reported_value = "moderate potency"


----------
# Tested on: carrageenan-induced paw edema
# assay text: Carrageenan-induced rat-paw-edema assay
# Format: in vivo, rats
# experimental context: 2 hours; compounds 5 mg/kg orally, naproxen 2.5 mg/kg orally, in DMSO; mean ± SE of six rats
readout kind: Edema (%)

[[record]]
compound = "COC(=O)C(CO)NC(=S)NC(=O)C(C)c1ccc2cc(OC)ccc2c1 (stereo not shown)"
readout_kind = "Edema (%)"
unit_of_measurement = "%"
reported_value = 30.9

[[record]]
compound = "COc1ccc2cc(C(C)C(=O)NC(=S)NC(CO)C(=O)NN)ccc2c1 (stereo not shown)"
readout_kind = "Edema (%)"
unit_of_measurement = "%"
reported_value = 23.2

[[record]]
compound = "COc1ccc2cc(C(C)C(=O)NC(=S)NCCC(=O)O)ccc2c1 (stereo not shown)"
readout_kind = "Edema (%)"
unit_of_measurement = "%"
reported_value = 31.4

[[record]]
compound = "COC(=O)CCNC(=S)NC(=O)C(C)c1ccc2cc(OC)ccc2c1 (stereo not shown)"
readout_kind = "Edema (%)"
unit_of_measurement = "%"
reported_value = 42.6

[[record]]
compound = "COc1ccc2cc([C@H](C)C(=O)O)ccc2c1 [Naproxen, reference compound]"
readout_kind = "Edema (%)"
unit_of_measurement = "%"
reported_value = 22.5

[[record]]
compound = "COC(=O)C(C)NC(=S)NC(=O)C(C)c1ccc2cc(OC)ccc2c1 (stereo not shown)"
readout_kind = "Edema (%)"
unit_of_measurement = "%"
reported_value = 42.2

[[record]]
compound = "COc1ccc2cc(C(C)C(=O)NC(=S)NC(Cc3ccc(O)cc3)C(=O)O)ccc2c1 (stereo not shown)"
readout_kind = "Edema (%)"
unit_of_measurement = "%"
reported_value = 19.9

[[record]]
compound = "COc1ccc2cc(C(C)C(=O)NC(=S)NCCC(=O)NN)ccc2c1 (stereo not shown)"
readout_kind = "Edema (%)"
unit_of_measurement = "%"
reported_value = 37.4

[[record]]
compound = "COc1ccc2cc(C(C)C(=O)NC(=S)NC(C)C(=O)O)ccc2c1 (stereo not shown)"
readout_kind = "Edema (%)"
unit_of_measurement = "%"
reported_value = 30.4

[[record]]
compound = "COc1ccc2cc(C(C)C(=O)NC(=S)NC(CO)C(=O)O)ccc2c1 (stereo not shown)"
readout_kind = "Edema (%)"
unit_of_measurement = "%"
reported_value = 28.4


----------
# System: carrageenan-induced paw edema
# assay text: Carrageenan-induced rat-paw-edema assay
# Format: in vivo, rats
# experimental context: 1 hour; calculated compared to the reference drug naproxen
readout kind: Potency (%)

[[record]]
compound = "COc1ccc2cc(C(C)C(=O)NC(=S)NCCC(=O)O)ccc2c1 (stereo not shown)"
reported_value = 67.6

[[record]]
compound = "COc1ccc2cc(C(C)C(=O)NC(=S)NCCC(=O)NN)ccc2c1 (stereo not shown)"
reported_value = 40.3

[[record]]
compound = "COc1ccc2cc(C(C)C(=O)NC(=S)NC(Cc3ccc(O)cc3)C(=O)O)ccc2c1 (stereo not shown)"
reported_value = 138.4

[[record]]
compound = "COc1ccc2cc(C(C)C(=O)NC(=S)NC(CO)C(=O)NN)ccc2c1 (stereo not shown)"
reported_value = 120.0

[[record]]
compound = "COC(=O)C(C)NC(=S)NC(=O)C(C)c1ccc2cc(OC)ccc2c1 (stereo not shown)"
reported_value = 4.7

[[record]]
compound = "COc1ccc2cc(C(C)C(=O)NC(=S)NC(C)C(=O)O)ccc2c1 (stereo not shown)"
reported_value = 102.5

[[record]]
compound = "COc1ccc2cc([C@H](C)C(=O)O)ccc2c1 [Naproxen, reference compound]"
reported_value = 100

[[record]]
compound = "COC(=O)C(CO)NC(=S)NC(=O)C(C)c1ccc2cc(OC)ccc2c1 (stereo not shown)"
reported_value = 66.7

[[record]]
compound = "COc1ccc2cc(C(C)C(=O)NC(=S)NC(CO)C(=O)O)ccc2c1 (stereo not shown)"
reported_value = 73.9

[[record]]
compound = "COC(=O)CCNC(=S)NC(=O)C(C)c1ccc2cc(OC)ccc2c1 (stereo not shown)"
reported_value = 6.3

